src = PubChem BioAssay AID878

Provide the recorded activation for the entries that follow.
Experiment: compounds producing H2O2 with reducing agent – biochemical, NIH compound library profiling, artefact control for MLSCN library redox annotation, primary screen (AID 878);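 also: compound incubated with DTT at 0.8 mM final as the reducing agent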
Conditions: DTT-dependent redox cycling H2O2, phenol red/HRP absorbance; at 10 µM; active compounds read high; 100% = 100 µM peroxide control, 0% = buffer
Out of some 200,000 compounds screened, about 65 (0.03%) were called active. This is one part of a sample in which actives are shown more often than they occur.
Your answer is read as %, so omit the unit and give the number.

GET /value?item= "C=CCn1nc(-c2ccccc2)c2c(C)onc2c1=O" &field=activation returns -0.48

GET /value?item= "COc1ccc(/C=C(\C#N)C(=O)ONC2=NCCCCC2)cc1" &field=activation returns -1.95

GET /value?item= "O=c1c2ccccc2c(-c2ccccc2)nn1-c1ccccn1" &field=activation returns -0.18

GET /value?item= "FC(F)(F)c1cccc(Cc2noc(CN3CCC(N4CCCCC4)CC3)n2)c1" &field=activation returns 0.44

GET /value?item= "COC(=O)NNC1=CC(=O)CC(C)(C)C1" &field=activation returns 0.51

GET /value?item= "Cc1cc(C)c(C#N)c(SCC(=O)Nc2ccccc2)n1" &field=activation returns 0.39

GET /value?item= "Cc1ccc(-n2c(SCC(=O)N/N=C/C=C/c3ccccc3[N+](=O)[O-])nc3ccccc3c2=O)cc1" &field=activation returns 0.36

GET /value?item= COCC(C)NC(=O)CSc1nc2nn(-c3ccccc3)c(=O)c-2c2n1CCCCC2 (stereo unspecified) &field=activation returns -1.27

GET /value?item= CC(C)(C)CN1CCNC(=O)C1CC(=O)NC1Cc2ccccc2C1 (stereo unspecified) &field=activation returns -0.72

GET /value?item= "COc1ccc(OCC(=O)Nc2cc(C)c(Cl)cc2OC)c([N+](=O)[O-])c1" &field=activation returns 0.12

GET /value?item= COc1ccc(CC(=O)N2N=C(C)CC2(O)C(F)(F)F)cc1 (stereo unspecified) &field=activation returns -0.18
